In this section we review reported inhibition at 0.5 µM values for a set of compounds.
- Tested System: Recombinant human AKR1C3 (17β-HSD5) protein (Homo sapiens)
- Construct: made in house; host or cells: E. coli
- Sequence (P42330 1-323): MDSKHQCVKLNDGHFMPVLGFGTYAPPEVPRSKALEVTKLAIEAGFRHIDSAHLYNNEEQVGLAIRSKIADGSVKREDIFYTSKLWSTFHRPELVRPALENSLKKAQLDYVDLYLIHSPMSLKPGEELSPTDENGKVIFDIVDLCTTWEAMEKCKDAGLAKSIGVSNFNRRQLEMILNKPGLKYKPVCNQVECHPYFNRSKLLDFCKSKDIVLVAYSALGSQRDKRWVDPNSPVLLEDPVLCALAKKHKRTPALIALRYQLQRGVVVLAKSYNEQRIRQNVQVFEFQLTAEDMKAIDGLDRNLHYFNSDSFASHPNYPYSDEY
- Assay Overview: Inhibition of AKR1C3 (17β-hydroxysteroid dehydrogenase type 5) enzyme, fluorescence assay
- Type: biochemical
- Assay Conditions: inhibitor at 500 nM
Express it in %; write the number only.

>  <Structure Smiles>
N#CC(=C1CCN(C(=O)N2C[C@@H]3CC[C@@H]2C3)CC1)c1ccc(F)cc1

>  <Recorded Measurement>
96

$$$$
>  <Structure Smiles>
N#CC(=C1CCN(C(=O)N2CCC(CO)CC2)CC1)c1cccc2[nH]ncc12

>  <Recorded Measurement>
98

$$$$
>  <Structure Smiles>
N#CC(=C1CCN(C(=O)N2CCc3nocc3C2)CC1)c1ccc(F)c(F)c1

>  <Recorded Measurement>
97

$$$$
>  <Structure Smiles>
N#CC(=C1CCN(C(=O)N2CCn3ncnc3C2)CC1)c1cc(F)cc(F)c1

>  <Recorded Measurement>
96

$$$$
>  <Structure Smiles>
N#CC(=C1CCN(C(=O)N2CCOCC2)CC1)c1ccc(C(F)(F)F)cc1

>  <Recorded Measurement>
99

$$$$

So, `N#CC(=C1CCN(C(=O)N2CCOCC2)CC1)c1ccc(Cl)cc1` ? Its inhibition at 0.5 µM was 99

# inhibition at 0.5 µM (compound: `N#CC(=C1CCN(C(=O)N2CCn3ncnc3C2)CC1)c1ccc(Cl)cc1` ) is 99

Every entry's value here was drawn from patent US12637471B2.
